System: IGROV-1
Assay: SRB colorimetric assay of cell growth and viability, IGROV-1
Type: cell-based, human
Settings: IGROV; 48 hours exposure
Where a SMILES comes first, the peptide text is derived from it. Bridges are numbered along the chain shown (N, C = ends). [ ]: non-standard residue; d: D form. The star is where a group is joined. d(aIle) = CC[C@H](C)[C@@H](N)C(=O)O; d(aThr) = C[C@@H](O)[C@@H](N)C(=O)O; Hexanoyl(5-Me) = CC(C)CCCC(=O)*; Orn = NCCC[C@H](N)C(=O)O; Dhb = C/C=C(\N)C(=O)O
Would you mind telling me the reported GI50 of each entry?
Numbers only, in nM.

{"molecule": "C/C=C1\\NC(=O)[C@H](Cc2ccc(F)c(F)c2)NC(=O)[C@@H](C(C)C)NC(=O)[C@@H]([C@@H](C)CC)NC(=O)[C@H](NC(=O)[C@H](NC(=O)[C@H](CCCN)NC(=O)[C@H]2CCCN2C(=O)[C@H](NC(=O)[C@@H](NC(=O)[C@@H](NC(=O)[C@H](NC(=O)CCCC(C)C)C(C)C)[C@@H](C)O)C(C)C)C(C)C)[C@@H](C)CC)[C@@H](C)OC(=O)[C@H](C(C)C)NC1=O [Compound 84, [Phe(3,4-F2)^3]-KF]", "GI50 [nM]": 47.2}

Switching to the query record.
(Q) Could you tell me which GI50 is on file for C/C=C1\NC(=O)[C@H](Cc2ccccc2)NC(=O)[C@@H](C(C)C)NC(=O)[C@@H]([C@@H](C)CC)NC(=O)[C@H](NC(=O)[C@H](NC(=O)[C@H](CCCN)NC(=O)[C@H]2CCCN2C(=O)[C@H](NC(=O)[C@@H](NC(=O)[C@H](Cc2ccccc2)NC(=O)[C@H](NC(=O)CCCC(C)C)C(C)C)C(C)C)C(C)C)[C@@H](C)CC)[C@@H](C)OC(=O)[C@H](C(C)C)NC1=O [Compound 114, [Phe^12]-KF] ({Hexanoyl(5-Me)}-[dV]FV[dV][dP][Orn][d(aIle)][d(aThr)][d(aIle)][dV]F[Dhb]V; ester 8-C) ?
(A) 114

* * *

Tested on: SK-BR-3
Assay: SRB colorimetric assay of cell growth and viability, SK-BR-3
Type: cell-based, human
Settings: 48 hours exposure
So I've got a bunch of compounds here, and I need their LC50 values.

Below, 2 compounds whose answers are already recorded.
{"compound": "C/C=C1\\NC(=O)[C@H](Cc2ccccc2)NC(=O)[C@@H](C(C)C)NC(=O)[C@@H]([C@@H](C)CC)NC(=O)[C@H](NC(=O)[C@H](NC(=O)[C@H](CCCN)NC(=O)[C@H]2CCCN2C(=O)[C@H](NC(=O)[C@@H](NC(=O)[C@@H](NC(=O)[C@H](NC(=O)CCCC(C)C)C(C)C)[C@@H](C)O)C(C)C)C(C)C)[C@@H](C)CC)[C@H](C)OC(=O)[C@H](C(C)C)NC1=O [Compound 2, [D-Thr^6]-KF]", "LC50": "≥ 6.77 µM"}
{"compound": "C/C=C1\\NC(=O)[C@H](Cc2ccccc2)NC(=O)[C@@H](C(C)C)NC(=O)[C@@H]([C@@H](C)CC)NC(=O)[C@H](NC(=O)[C@H](NC(=O)[C@H](CCCN)NC(=O)[C@H]2CCCN2C(=O)[C@H](NC(=O)[C@@H](NC(=O)[C@@H](NC(=O)[C@H](NC(=O)c2ccccc2)C(C)C)[C@@H](C)O)C(C)C)C(C)C)[C@@H](C)CC)[C@@H](C)OC(=O)[C@H](C(C)C)NC1=O [Compound 20, [Bza^14]-KF]", "LC50": "3.38 µM"}

Kindly review the next compound as well.
(Q) Consider the compound shown here: C/C=C1\NC(=O)[C@H](Cc2ccccc2)NC(=O)[C@@H](C(C)C)NC(=O)[C@@H]([C@@H](C)CC)NC(=O)[C@H](NC(=O)[C@H](NC(=O)[C@H](CCCN)NC(=O)[C@H]2CCCN2C(=O)[C@H](NC(=O)[C@@H](NC(=O)[C@@H](NC(=O)[C@H](NC(=O)CC[C@H](C)CC)C(C)C)[C@@H](C)O)C(C)C)C(C)C)[C@@H](C)CC)[C@@H](C)OC(=O)[C@H](C(C)C)NC1=O [Compound 16, [(4R)-MeHex^14]-KF] What is its recorded LC50?
(A) 3.86 µM

* * *

Tested on: IGROV-ET
Test: SRB colorimetric assay of cell growth and viability, IGROV-ET
Type: cell-based, human
Details: 48 hours exposure, SRB; read-out: LC50 IGROV-ET
Where a SMILES comes first, the peptide text is derived from it. Bridges are numbered along the chain shown (N, C = ends). [ ]: non-standard residue; d: D form. The star is where a group is joined. d(aIle) = CC[C@H](C)[C@@H](N)C(=O)O; d(aThr) = C[C@@H](O)[C@@H](N)C(=O)O; hCha = N[C@@H](CCC1CCCCC1)C(=O)O; Hexanoyl(5-Me) = CC(C)CCCC(=O)*; Orn = NCCC[C@H](N)C(=O)O; Dhb = C/C=C(\N)C(=O)O; Dha = C=C(N)C(=O)O
measured_attribute: log10(CC50) (log10 of the value in nM)
Remember, log10 of CC50, in nM.

Sample answers from the record:
{"compound": "C/C=C1\\NC(=O)[C@H](Cc2ccc(Cl)c(Cl)c2)NC(=O)[C@@H](C(C)C)NC(=O)[C@@H]([C@@H](C)CC)NC(=O)[C@H](NC(=O)[C@H](NC(=O)[C@H](CCCN)NC(=O)[C@H]2CCCN2C(=O)[C@H](NC(=O)[C@@H](NC(=O)[C@@H](NC(=O)[C@H](NC(=O)CC[C@@H](C)CC)C(C)C)[C@@H](C)O)C(C)C)C(C)C)[C@@H](C)CC)[C@@H](C)OC(=O)[C@H](C(C)C)NC1=O [Compound 70, [Phe(3,4-Cl2)^3, (4S)-MeHex^14]-KF]", "log10(CC50)": 2.59}
{"compound": "C/C=C1\\NC(=O)[C@H](CCC2CCCCC2)NC(=O)[C@@H](C(C)C)NC(=O)[C@@H]([C@@H](C)CC)NC(=O)[C@H](NC(=O)[C@H](NC(=O)[C@H](CCCN)NC(=O)[C@H]2CCCN2C(=O)[C@H](NC(=O)[C@@H](NC(=O)[C@@H](NC(=O)[C@H](NC(=O)CCCC(C)C)C(C)C)[C@@H](C)O)C(C)C)C(C)C)[C@@H](C)CC)[C@@H](C)OC(=O)[C@H](C(C)C)NC1=O [Compound 63] ({Hexanoyl(5-Me)}-[dV]TV[dV][dP][Orn][d(aIle)][d(aThr)][d(aIle)][dV][hCha][Dhb]V; ester 8-C)", "log10(CC50)": 2.72}
{"compound": "C/C=C1\\NC(=O)[C@H](Cc2ccccc2)NC(=O)[C@@H](C(C)C)NC(=O)[C@@H]([C@@H](C)CC)NC(=O)[C@H](NC(=O)[C@H](NC(=O)[C@H](CCCN)NC(=O)[C@H]2CCCN2C(=O)[C@H](NC(=O)[C@@H](NC(=O)[C@@H](NC(=O)[C@H](NC(=O)CC[C@@H](C)CC)C(C)C)[C@@H](C)OC(=O)C(F)(F)F)C(C)C)C(C)C)[C@@H](C)CC)[C@@H](C)OC(=O)[C@H](C(C)C)NC1=O", "log10(CC50)": 3.20}
{"compound": "C/C=C1\\NC(=O)[C@H](Cc2ccccc2)N(C)C(=O)[C@@H](C(C)C)NC(=O)[C@@H]([C@@H](C)CC)NC(=O)[C@H](NC(=O)[C@H](NC(=O)[C@H](CCCN)NC(=O)[C@H]2CCCN2C(=O)[C@H](NC(=O)[C@@H](NC(=O)[C@@H](NC(=O)[C@H](NC(=O)CC[C@@H](C)CC)C(C)C)[C@@H](C)O)C(C)C)C(C)C)[C@@H](C)CC)[C@@H](C)OC(=O)[C@H](C(C)C)NC1=O [Compound 80, [NMePhe^3, (4S)-MeHex^14]-KF]", "log10(CC50)": 3.48}

--- query ---
(Q) I would be grateful if you could share the reported log10(CC50) for C=C1NC(=O)[C@H](Cc2ccccc2)NC(=O)[C@@H](C(C)C)NC(=O)[C@@H]([C@@H](C)CC)NC(=O)[C@H](NC(=O)[C@H](NC(=O)[C@H](CCCN)NC(=O)[C@H]2CCCN2C(=O)[C@H](NC(=O)[C@@H](NC(=O)[C@@H](NC(=O)[C@H](NC(=O)CCCC(C)C)C(C)C)[C@@H](C)O)C(C)C)C(C)C)[C@@H](C)CC)[C@@H](C)OC(=O)[C@H](C(C)C)NC1=O [Compound 67, [Dha^2]-KF] ({Hexanoyl(5-Me)}-[dV]TV[dV][dP][Orn][d(aIle)][d(aThr)][d(aIle)][dV]F[Dha]V; ester 8-C) .
(A) 3.66
